test system: NOMO1; test: AUC of viability dose-response curve (% viability x log10 dose units); higher = less sensitive; details: RPMI 5 mM glucose + 10% FBS; 48 h
Measurement Type: AUC of viability dose-response curve
// response body must contain only the number

{"Compound": "C[C@H]1[C@H](OC(=O)CCC(=O)O)O[C@@H]2O[C@@]3(C)CC[C@H]4[C@H](C)CC[C@@H]1[C@@]24OO3", "AUC of viability dose-response curve": 342}
{"Compound": "CN1CCC(CC1)COC2=CN=C(N=C2)C3=CC(=CC=C3)CN4/N=C(\\C=C/C4=O)C5=CC(=CC=C5)C#N", "AUC of viability dose-response curve": 464}
{"Compound": "N=C(N)NC(=O)c1nc(Cl)c(N)nc1N", "AUC of viability dose-response curve": 342}
{"Compound": "C=CC1=C(C(=O)O)N2C(=O)[C@@H](NC(=O)/C(=N\\O)c3csc(N)n3)[C@H]2SC1", "AUC of viability dose-response curve": 438}
{"Compound": "CC(=O)NC(CS)C(=O)O (stereo not given)", "AUC of viability dose-response curve": 352}
{"Compound": "O=C(CO)N1CCC(c2n[nH]c(-c3ccc(Cl)cc3)c2-c2ccncn2)CC1", "AUC of viability dose-response curve": 453}
{"Compound": "Cn1c(Nc2ccc(C(F)(F)F)cc2)nc2cc(Oc3ccnc(-c4nc(C(F)(F)F)c[nH]4)c3)ccc21", "AUC of viability dose-response curve": 454}
{"Compound": "CC(=O)C\\1=C(/C)C2=CN=C(NC3=CC=C(C=N3)N4CCNCC4)N=C2N(C5CCCC5)C1=O", "AUC of viability dose-response curve": 429}

Consider the compound shown here: `CO[C@H]1C[C@@H]2CC[C@@H](C)[C@@](O)(O2)C(=O)C(=O)N2CCCC[C@H]2C(=O)O[C@H]([C@H](C)C[C@@H]2CC[C@@H](OC(=O)C(C)(CO)CO)[C@H](OC)C2)CC(=O)[C@H](C)/C=C(\C)[C@@H](O)[C@@H](OC)C(=O)[C@H](C)C[C@H](C)/C=C/C=C/C=C/1C` What is its recorded AUC of viability dose-response curve?
435

Consider the compound shown here: `Oc1ccc(C2CCN(c3ccnc4ccccc34)CC2)cc1O` What is its recorded AUC of viability dose-response curve?
457

* * *

tested on: NOMO1; assay: cell viability relative to DMSO control; higher = less cytotoxic; conditions: RPMI 5 mM glucose + 10% dialyzed FBS; 48 h; 0.000781 µM
Measurement Type: cell viability (%)
Response body: numeric value in %, unit text excluded.

Past entries and their recorded results:
{"Smiles Text": "O=C(NC[C@H](O)CN1CCc2ccccc2C1)c1cc(NC2COC2)ncn1", "cell viability / %": 83.5}
{"Smiles Text": "N=C(N)NC(=O)c1nc(Cl)c(N)nc1N", "cell viability / %": 112}
{"Smiles Text": "c1cc(CN2CCCNCCNCCCNCC2)ccc1CN1CCCNCCNCCCNCC1", "cell viability / %": 89.2}
{"Smiles Text": "C[C@@H](O)[C@@H]1[C@H]2[C@@H](C)\\C(=C(/N2C1=O)C(=O)OCOC(=O)C(C)(C)C)SC3CN(C3)/C4=N/CCS4", "cell viability / %": 87.8}

Consider the compound shown here: `Cn1cc(-c2ccc3nnc(C(F)(F)c4ccc5ncccc5c4)n3n2)cn1` What is its recorded cell viability?
87.3

Consider the compound shown here: `Clc1cc(Cl)cc(CNc2ncncc2-c2ccc3c(c2)OCO3)c1` What is its recorded cell viability?
91.5

Consider the compound shown here: `CCOc1ccc(Nc2nc(-c3c(C)nc4ccccn34)cs2)cc1` What is its recorded cell viability?
119

Consider the compound shown here: `CC[C@H]1/C=C\C=C/C[C@@H](C)[C@H](O)[C@@](C)(O)C(=O)[C@@H](C)[C@H](O)[C@@H](C)C(=O)[C@@H](C)[C@H](O)[C@@H](C)/C=C/C(=O)O[C@@H]2[C@H](C)[C@H](CC1)O[C@]1(CC[C@H](C)[C@H](C[C@@H](C)O)O1)[C@H]2C` What is its recorded cell viability?
81.4
